The measurements presented in this section are drawn from PubChem BioAssay (NCI).

growth inhibition values by entry
- test_protocol: NCI Yeast Anticancer Drug Screen. Data for the rad14 strain (AID 159);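 note: 0% = growth of vehicle-treated control cultures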
- conditions_used: S. cerevisiae rad14 strain growth inhibition; at 100.0 µM; active compounds read high
The panel holds about 79,000 compounds, 15% with a hit somewhere; the sample as a whole holds those more often. Active and inactive are the calls of the source. Cut-off read from the data, not from the text of the source: active = growth inhibition above about 70%; inactive = the rest.
metric_name: growth inhibition

In [3]: df
Out[3]:
                                    compound        measured
 0                           CCn1ncc(N=O)c1N  41% (inactive)
 1  CCN1/C(=C/c2ccc3ccccc3[n+]2CC)C=Cc2ccccc21    98% (active)
 2  CO[C@@]12[C@H](COC(N)=O)C3=C(C(=O)C(C)=C(N)C3=O)N1C[C@@H]1N[C@@H]12    89% (active)
 3              Nc1ccc2c(=S)c3ccccc3[nH]c2c1  42% (inactive)
 4              Cc1cccc2c1N=C(C(F)(F)F)CC2=O  39% (inactive)
 5            N#C/C(=C/c1c(Cl)cccc1Cl)C(N)=O    97% (active)
 6  N#C/C(=C/N1C(=O)/C(=C/c2ccc([N+](=O)[O-])cc2)SC1=S)c1nc2ccccc2s1    84% (active)
 7   N#C/C(=C1C=C/C(=N/O)c2ccccc2/1)c1ccccc1    71% (active)
 8  COc1ccc2oc(-c3ccc(Cl)cc3)c(N3CCN(C)CC3)c2c1    99% (active)
 9  CN(C)CCN1C(=O)c2cccc3cc([N+](=O)[O-])cc(c23)C1=O  34% (inactive)
10  S=C(S)NCC1CCC(CNC(=S)S)CC1 (configuration not stated)    92% (active)
11  N#CSC1CCCCNC1=O (configuration not stated)    99% (active)

---

- test_protocol: NCI Yeast Anticancer Drug Screen. Data for the mlh1 strain (AID 171);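 note: 0% = growth of vehicle-treated control cultures of the same strain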
- conditions_used: S. cerevisiae mlh1 strain growth inhibition; at 33.0 µM; active compounds read high
About 79,000 compounds went through this panel and 15% of them were active in at least one assay; those are over-represented in the sample as a whole.
Reported values of growth inhibition for individual entries
metric_name: growth inhibition (%)

>>> print(df.to_string())
                                    compound        metric_name  measured
 0                  Oc1ccccc1N=Cc1ccc(Cl)cc1  growth inhibition        18
 1              CCc1[nH]nc(C(N)=O)c1N=NN(C)C  growth inhibition         6
 2                Cc1ccc(Nc2n[nH]c(=S)s2)cc1  growth inhibition        29
 3  CC(=O)C1(O)Cc2c(O)c3c(c(O)c2C(OC2CC(N)C(O)C(C)O2)C1)C(=O)c1ccccc1C3=O (stereo not drawn)  growth inhibition        96
 4  C(=N/NC1=NCCN1)/c1c2ccccc2c(/C=N\NC2=NCCN2)c2ccccc12  growth inhibition        73
 5  CCOC(=O)C1=C(C)NC(C)=C(C(=O)OCC)C1c1ccccc1Cl  growth inhibition        41
 6                    Nc1ccc2c(c1)sc1ccccc12  growth inhibition        21
 7       Nc1nc(N)c2cc(Sc3ccc4ccccc4c3)ccc2n1  growth inhibition        95
 8  CCOP1(=O)C=C(Sc2ccc([N+](=O)[O-])cc2[N+](=O)[O-])C(C)(C)O1 (stereo not drawn)  growth inhibition        31
 9  CC(C)(C)c1ccc(O)c(C(c2ccc([N+](=O)[O-])cc2)c2cc(C(C)(C)C)ccc2O)c1  growth inhibition        90
10  CNc1nc(C)nc2c1cnn2-c1ccc([N+](=O)[O-])cc1  growth inhibition        -1
11                ClCCn1c(CCl)nc2ccc(Cl)cc21  growth inhibition        67
12  N#C/C(=C1C=C(Br)/C(=N\O)C=C\1Cl)c1cccc2ccccc12  growth inhibition        79
13   N#C/C(=C1C=C/C(=N/O)c2ccccc2/1)c1ccccc1  growth inhibition        73
14                           CCn1ncc(N=O)c1N  growth inhibition        35
15  CN(Cc1cnc2nc(N)nc(N)c2n1)c1ccc(C(=O)NC(CCC(=O)O)C(=O)O)c2ccccc12 (stereo not drawn)  growth inhibition        66
16          COC(=O)c1n[nH]c(C)c1N=NN(C)CCC#N  growth inhibition        99
17                   Oc1ccc(C=Nc2ccccc2O)cc1  growth inhibition        45
18  COc1ccc2c(c1)[nH]c1c(/C=C/c3ccccc3)nccc12  growth inhibition        68
19       CN(C)c1ccc(/C=C/c2ccnc3ccccc23)cc1N  growth inhibition         7
20  CC(=O)C1=C(O)C2(C)c3c(O)c(C)c(O)c(C(C)=O)c3OC2(Sc2ccccc2)CC1=O (stereo not drawn)  growth inhibition        38
21       O=S(=O)(N/N=C/c1cccc(Cl)c1)c1ccccc1  growth inhibition        83
22      O=C(/C=C/c1cccc2ccccc12)c1ccc(Cl)cc1  growth inhibition       -46
23  CCCCCCCCCCCCCCCCNC(=O)/C(=C\c1ccc(Cl)c(Cl)c1)NC(=O)c1ccccc1  growth inhibition        -5
24    C/C=C/[P+](c1ccccc1)(c1ccccc1)c1ccccc1  growth inhibition        68
25  CC1=CC2C(C(C)C)CC1C1C(=O)OC(=O)C21 (stereo not drawn)  growth inhibition        10
26          Clc1nc(C(Cl)Cl)nc2sc3c(c12)CCCC3  growth inhibition        29
27                    O=Nc1ccc(Nc2ccccc2)cc1  growth inhibition        83
28    COc1ccc(/C(C#N)=C/c2ccc(OC)c(OC)c2)cc1  growth inhibition        28
29       O=C(CNS(=O)(=O)Cc1ccccc1)NNc1ccccc1  growth inhibition        16
30                  CCCCOC(=O)CSSCC(=O)OCCCC  growth inhibition        74
31         CC(=O)Oc1ccc(C(=O)c2ccccc2)c(O)c1  growth inhibition        36
32                 O=c1ccc(N=Nc2ccccc2)ccc1O  growth inhibition        99
33            BrCc1ccccc1C(c1ccccc1)c1ccccc1  growth inhibition        97
34           OCCN(CCO)c1ccc2c(c1)Cc1ccccc1-2  growth inhibition        -6
35             COC(=O)c1ccc2c(c1)Cc1ccccc1-2  growth inhibition       -11
36               c1ccc2c(c1)Cn1c-2nc2ccccc21  growth inhibition        36
37            CCC(=O)Oc1ccc(/C=N/NC(N)=S)nc1  growth inhibition        -8
38   COC(=O)/C=C1/OC(c2ccc(Br)cc2)=C(Br)C1=O  growth inhibition       -12
39  O=C(N/N=C\c1c(Cl)cccc1Cl)N/N=C/c1c(Cl)cccc1Cl  growth inhibition        -9
40        COc1ccc(C(C#N)=C2C=CC(=NO)C=C2)cc1  growth inhibition        97
41  C/C(=N\NC(=S)NNC(=S)N(C)c1ccccc1)c1ccccn1  growth inhibition        98
42      COc1cc(N(C)C)ccc1/C=C\c1ccnc2ccccc12  growth inhibition        22
43  O=C(O)c1cccc2cccc(-c3c4ccc(=O)cc-4oc4cc(O)ccc34)c12  growth inhibition        87
44  Cc1ccc(S(=O)(=O)N/N=C/C2(c3ccccc3)c3ccccc3-c3ccccc32)cc1  growth inhibition        61
45                       O=Cc1coc2ccccc2c1=O  growth inhibition        30
46  OCCNCCOc1ccc(/C(=C(/Cl)c2ccccc2)c2ccccc2)cc1  growth inhibition        98
47  CC(=O)N1C(=O)/C(=C\C(=O)c2ccc([N+](=O)[O-])cc2)c2ccccc21  growth inhibition        95

---

- test_protocol: NCI Yeast Anticancer Drug Screen. Data for the wt2 strain (AID 169);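 note: 0% = growth of vehicle-treated yeast cultures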
- conditions_used: S. cerevisiae wt2 strain growth inhibition; at 100.0 µM; active compounds read high
The panel holds about 79,000 compounds, 15% with a hit somewhere; the sample as a whole holds those more often.
Label rule, in plain words: growth inhibition of 90% and up is 1 (yes), under 90% is 0 (no).

compound	qualitative_label
c1ccc2c(c1)Cn1c-2nc2ccccc21	1 (yes)
O=Cc1coc2ccccc2c1=O	1 (yes)
CCN(CC)CC(O)c1cc(-c2ccc(Cl)cc2)nc2c(-c3ccccc3)cccc12 (stereo not drawn)	1 (yes)
CN(N=O)C(=O)N[C@@H](C=O)[C@@H](O)[C@H](O)[C@H](O)CO	0 (no)
CC(C)(O)c1ccccc1C(c1ccccc1)c1ccccc1	0 (no)
CN(C)CCN1C(=O)c2cccc3cc([N+](=O)[O-])cc(c23)C1=O	0 (no)
CCOC(=O)C1=C(C)NC(C)=C(C(=O)OCC)C1c1ccc(C)cc1	1 (yes)
CC(=O)OCC1OC(O[C@H]2C=C[C@@H](C(=O)OCc3ccccc3)n3c(=O)n(-c4ccccc4)c(=O)n32)C(OC(C)=O)C(OC(C)=O)C1OC(C)=O (stereo partly drawn)	1 (yes)
